Let's look at some compounds and their measured log P neutral.
Experiment: Determination of log P values by HPLC (reversed-phase C18)
Type: physicochemical
Settings: HPLC, reversed-phase C18, 55° C.; final compounds table
Kindly provide the number alone.

Before answering, review these 4 worked examples.
COMPOUND	log P neutral
Cc1cc(C)c([S+]([O-])CC(F)(F)F)cc1-n1cnc(NC(=O)c2ccccc2C(F)(F)F)n1 (stereo not shown) [Compound I-1-90]	2.31
CCc1ccccc1C(=O)Nc1ncn(-c2ccccc2Br)n1 [Compound I-1-73]	2.34
CCc1ccccc1C(=O)Nc1ncn(-c2c(Br)cccc2Br)n1 [Compound I-1-81]	2.45
CCc1ccccc1C(=O)Nc1ncn(-c2c(F)cccc2C(F)(F)F)n1 [Compound I-1-29]	2.39

Returns the measured log P neutral for the input compound. Input: O=C(Nc1ncn(-c2ccccc2Br)n1)c1ccccc1C(F)(F)F [Compound I-1-70]
2.15
